Test system: ragweed (common ragweed, Ambrosia elatior)
Experiment: Test B pre-/postemergence plant response
Assay type: in vivo
Conditions: Postemergence, 250 g ai/ha; scale 0 to 100 (0 no effect, 100 complete control)
measurement_name: Plant response rating, Ragweed
API doc: respond with a numeric literal and nothing else, no unit.

Solved entries:
molecule: CCOCCn1c(-c2ccccc2)ncc(C(=O)C2=C(O)CCCC2=O)c1=O [Compound 96]
system: ragweed (common ragweed, Ambrosia elatior)
measurement_name: Plant response rating, Ragweed
measured_value: 95
//
molecule: O=C1CCCC(O)=C1C(=O)c1cnc(-c2ccccc2)n(C2CC2)c1=O [Compound 90]
system: ragweed (common ragweed, Ambrosia elatior)
measurement_name: Plant response rating, Ragweed
measured_value: 95
//
molecule: COCCn1c(-c2cccs2)ncc(C(=O)C2=C(O)CCCC2=O)c1=O [Compound 108]
system: ragweed (common ragweed, Ambrosia elatior)
measurement_name: Plant response rating, Ragweed
measured_value: 98
//
molecule: Cc1ccc(F)c(-n2c(-c3ccccc3)ncc(C(=O)C3=C(O)CCCC3=O)c2=O)c1 [Compound 51]
system: ragweed (common ragweed, Ambrosia elatior)
measurement_name: Plant response rating, Ragweed
measured_value: 95
//
molecule: O=C1CCCC(O)=C1C(=O)c1cnc(-c2cccs2)n(-c2ccccc2)c1=O [Compound 66]
system: ragweed (common ragweed, Ambrosia elatior)
measurement_name: Plant response rating, Ragweed
measured_value: 60

Task: Recorded Plant response rating, Ragweed of CCCn1c(-c2ccsc2)ncc(C(=O)C2=C(O)CCCC2=O)c1=O [Compound 93] , please.
Output: 98

Task: Same again, this time with Cc1ccc(Cl)cc1-n1c(-c2ccccc2)ncc(C(=O)C2=C(O)CCCC2=O)c1=O [Compound 52]
Output: 85

Task: Same again, this time with O=C1CCCC(O)=C1C(=O)c1cnc(-c2ccsc2)n(CC2CCCO2)c1=O (centres unmarked) [Compound 98]
Output: 90

----------
Readings of Velvetleaf plant response rating (0 to 100 scale) for the listed compounds
System: velvetleaf (Abutilon theophrasti)
Assay: Test B pre-/postemergence plant response
Format: in vivo
Conditions: 62 g ai/ha, postemergence; 0 is no effect, 100 is complete control; 13 to 15 days
Description: […] Treated plants and controls were maintained in a greenhouse for 13 to 15 days, after which time all treated plants were visually evaluated and compared to controls. […]
API doc: respond with a numeric literal and nothing else, no unit.

Solved entries:
compound: CCCc1ncc(C(=O)C2=C(O)CCCC2=O)c(=O)n1-c1cccc(C)c1
measured_value: 98
--
compound: O=C1CCCC(O)=C1C(=O)c1cnc(-c2cccc(Br)c2)n(-c2ccccc2)c1=O
measured_value: 98
--
compound: COCCCn1c(-c2ccccc2)ncc(C(=O)C2=C(O)CCCC2=O)c1=O
measured_value: 100
--
compound: O=C1CCCC(O)=C1C(=O)c1cnc(-c2ccsc2)n(CC2CCCO2)c1=O (centres unmarked)
measured_value: 95

For the next question, use this compound.
Task: Recorded Velvetleaf plant response rating (0 to 100 scale) of CCCCn1c(CCC)ncc(C(=O)C2=C(O)CCCC2=O)c1=O , please.
Output: 100

----------
Readings of Wheat plant response rating for the listed compounds
Test system: wheat (Triticum aestivum)
Assay: Test A pre-/postemergence plant response
Format: in vivo
Details: Postemergence, 500 g ai/ha; visual injury, 0 to 100 scale (0 no effect, 100 complete control), approx. ten days

Solved entries:
smiles_input: Cc1cccc(-c2ncc(C(=O)C3=C(O)CCCC3=O)c(=O)n2-c2ccc(F)cc2C)c1
Wheat plant response rating: 0

smiles_input: CCCCn1c(C2CC2)ncc(C(=O)C2=C(O)CCCC2=O)c1=O
Wheat plant response rating: 70

smiles_input: CCCn1c(-c2cccc(C)c2)ncc(C(=O)C2=C(O)CCCC2=O)c1=O
Wheat plant response rating: 20

smiles_input: COc1ccc(-n2c(-c3cccc(Br)c3)ncc(C(=O)C3=C(O)CCCC3=O)c2=O)cc1
Wheat plant response rating: 0

For the next question, use this compound.
Task: Recorded Wheat plant response rating of O=C1CCCC(O)=C1C(=O)c1cnc(-c2ccccc2)n(CCC(F)(F)F)c1=O , please.
Output: 0
